Where do these numbers come from? They come from PubChem BioAssay (EPA / NIEHS).

Read-out: Interleukin 6 (IL6), IL6 (gene 3569)
Experiment: BSK_BT_xIL6: BioMAP Diversity Plus: BT Assay for Interleukin 6 (IL6) Biomarker Activity (AID 2284228)
Details: primary human B cells with PBMC
The source made the active and inactive calls. How the source made its calls: active means hit-call score of the fitted dose curve at least 0.9, where 1 is the maximum; inactive means score below 0.9.
Assign a class; possible classes are y for active, n for inactive

Exercise: Look up the recorded call for Oc1cccc2ccccc12 in this test.
Solution: y

Exercise: Look up the recorded call for CN(C)c1ccc(C(c2ccccc2)c2ccc(N(C)C)cc2)cc1 in this test.
Solution: y

Exercise: Look up the recorded call for Cc1cc(-n2nc3ccc(Cl)cc3n2)c(O)c(C(C)(C)C)c1 in this test.
Solution: n

Exercise: Look up the recorded call for CCCCCCCCCCC1CO1 (stereo not drawn) in this test.
Solution: n

Exercise: Look up the recorded call for CCCCCCCCCCCCCCCCCC[N+](C)(C)C in this test.
Solution: y

Exercise: Look up the recorded call for CN(C)CCC(c1ccc(Cl)cc1)c1ccccn1 (stereo not drawn) in this test.
Solution: n

Exercise: Look up the recorded call for Cc1cccnc1 in this test.
Solution: n

Exercise: Look up the recorded call for CCCCCCCCCC/C=C/C1CC(=O)OC1=O (stereo not drawn) in this test.
Solution: n

====

Assay: CCTE_Shafer_MEA_dev_network_spike_number: CCTE's Neural Network Formation Assay for Number of Network Spikes, Shafer Lab (AID 2284048);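 further: synchronized bursts across electrodes counted on days 5 7 9 12 and integrated as AUC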
Activity calls are given as the source filed them. Rule for the calls: active = hit-call score of the fitted dose curve at least 0.9, where 1 is the maximum; inactive = score below 0.9.
Assign a class; possible classes are active, inactive

Exercise: Look up the recorded call for NC(N)=Nc1nc(CSCCC(N)=NS(N)(=O)=O)cs1 in this test.
Solution: inactive

Exercise: Look up the recorded call for c1ccc2cc3c4ccccc4c4ccccc4c3cc2c1 in this test.
Solution: inactive

Exercise: Look up the recorded call for c1cc2ccc3ccc4ccc5cccc6c(c1)c2c3c4c56 in this test.
Solution: inactive

Exercise: Look up the recorded call for Cc1c(O)cccc1C(=O)N[C@@H](CSc1ccccc1)[C@H](O)CN1C[C@H]2CCCC[C@H]2C[C@H]1C(=O)NC(C)(C)C in this test.
Solution: active

Exercise: Look up the recorded call for CC1(C)S[C@@H]2[C@H](NC(=O)[C@H](N)c3ccc(O)cc3)C(=O)N2[C@H]1C(=O)O in this test.
Solution: inactive

Exercise: Look up the recorded call for C[C@@H]1C[C@H]2[C@@H]3CCC4=CC(=O)C=C[C@]4(C)[C@@]3(F)[C@@H](O)C[C@]2(C)[C@@]1(O)C(=O)CO in this test.
Solution: inactive

====

Test: ATG_AP_2_CIS: Attagene CIS-FACTORIAL HepG2 Assay for human Activator Protein 2 (AP-2) (AID 2282932)
Conditions: HepG2 AP-2 cis-reporter, Attagene transcription factor profiling; actives raise or lower the signal
The source made the active and inactive calls. Rule for the calls: active = hit-call score of the fitted dose curve at least 0.9, where 1 is the maximum; inactive = score below 0.9.
Assign a class; possible classes are t for active, f for inactive

Exercise: Look up the recorded call for O=C(c1ccccc1)c1ccccc1O in this test.
Solution: f

Exercise: Look up the recorded call for CNC[C@H](O)[C@@H](O)[C@H](O)[C@H](O)CO in this test.
Solution: f

Exercise: Look up the recorded call for CN(C)Cc1cc(C(C)(C)C)c(O)c(C(C)(C)C)c1 in this test.
Solution: f

Exercise: Look up the recorded call for OCCN(CCO)c1cccc(Cl)c1 in this test.
Solution: f

Exercise: Look up the recorded call for OCCc1ccccn1 in this test.
Solution: f

Exercise: Look up the recorded call for CC(C)CC(=O)O in this test.
Solution: f

Exercise: Look up the recorded call for CO[Si](CCCNCCN)(OC)OC in this test.
Solution: f

Exercise: Look up the recorded call for CCCCCCCCCCC1CO1 (stereo not given) in this test.
Solution: f

Exercise: Look up the recorded call for CN(C)CCC(c1ccc(Cl)cc1)c1ccccn1 (stereo not given) in this test.
Solution: f

Exercise: Look up the recorded call for OCCOCCOCCOCCOCCO in this test.
Solution: f

Exercise: Look up the recorded call for CC(C)n1c(/C=C/[C@@H](O)C[C@@H](O)CC(=O)O)c(-c2ccc(F)cc2)c2ccccc21 in this test.
Solution: f

Exercise: Look up the recorded call for CC(=O)OC(C)(C)Cc1ccccc1 in this test.
Solution: f

Exercise: Look up the recorded call for O=C(O)c1ccccc1C(=O)O in this test.
Solution: f

Exercise: Look up the recorded call for O=C(OCc1ccccc1)c1ccccc1 in this test.
Solution: f

Exercise: Look up the recorded call for O=C(O)/C=C\C(=O)O in this test.
Solution: f

Exercise: Look up the recorded call for COc1ccc2ccccc2c1 in this test.
Solution: f

Exercise: Look up the recorded call for CCCCCCC1CCC(=O)O1 (stereo not given) in this test.
Solution: f

Exercise: Look up the recorded call for COc1cccc(OC)c1C(=O)O in this test.
Solution: f

Exercise: Look up the recorded call for c1cc(N(CC2CO2)CC2CO2)ccc1Cc1ccc(N(CC2CO2)CC2CO2)cc1 (stereo not given) in this test.
Solution: t

Exercise: Look up the recorded call for CCO[Si](CCCN)(OCC)OCC in this test.
Solution: f

Exercise: Look up the recorded call for CC1=C(CC(=O)O)c2cc(F)ccc2/C1=C\c1ccc(S(C)=O)cc1 (stereo not given) in this test.
Solution: f

Exercise: Look up the recorded call for O=C1NC(=O)C2CC=CCC12 (stereo not given) in this test.
Solution: f

Exercise: Look up the recorded call for NC(=O)c1ccc([N+](=O)[O-])cc1Cl in this test.
Solution: f

Exercise: Look up the recorded call for CCCCNC(N)=O in this test.
Solution: f

Exercise: Look up the recorded call for CCC(C)C1N=C(C)C(C)S1 (stereo not given) in this test.
Solution: f

Exercise: Look up the recorded call for CC(C)(Oc1ccc(Cl)cc1)C(=O)O in this test.
Solution: f

Exercise: Look up the recorded call for CNC(=C[N+](=O)[O-])NCCSCc1csc(CN(C)C)n1 in this test.
Solution: f

Exercise: Look up the recorded call for C=CC(C)(CCC=C(C)C)OC(=O)c1ccccc1 (stereo not given) in this test.
Solution: f

Exercise: Look up the recorded call for c1ccc2c(c1)Oc1ccccc1S2 in this test.
Solution: f

Exercise: Look up the recorded call for CCCCn1cc[n+](C)c1 in this test.
Solution: f

====

Biological target: PGR (gene 5241) (UniProt P06401)
Sequence (P06401 whole entry, looked up): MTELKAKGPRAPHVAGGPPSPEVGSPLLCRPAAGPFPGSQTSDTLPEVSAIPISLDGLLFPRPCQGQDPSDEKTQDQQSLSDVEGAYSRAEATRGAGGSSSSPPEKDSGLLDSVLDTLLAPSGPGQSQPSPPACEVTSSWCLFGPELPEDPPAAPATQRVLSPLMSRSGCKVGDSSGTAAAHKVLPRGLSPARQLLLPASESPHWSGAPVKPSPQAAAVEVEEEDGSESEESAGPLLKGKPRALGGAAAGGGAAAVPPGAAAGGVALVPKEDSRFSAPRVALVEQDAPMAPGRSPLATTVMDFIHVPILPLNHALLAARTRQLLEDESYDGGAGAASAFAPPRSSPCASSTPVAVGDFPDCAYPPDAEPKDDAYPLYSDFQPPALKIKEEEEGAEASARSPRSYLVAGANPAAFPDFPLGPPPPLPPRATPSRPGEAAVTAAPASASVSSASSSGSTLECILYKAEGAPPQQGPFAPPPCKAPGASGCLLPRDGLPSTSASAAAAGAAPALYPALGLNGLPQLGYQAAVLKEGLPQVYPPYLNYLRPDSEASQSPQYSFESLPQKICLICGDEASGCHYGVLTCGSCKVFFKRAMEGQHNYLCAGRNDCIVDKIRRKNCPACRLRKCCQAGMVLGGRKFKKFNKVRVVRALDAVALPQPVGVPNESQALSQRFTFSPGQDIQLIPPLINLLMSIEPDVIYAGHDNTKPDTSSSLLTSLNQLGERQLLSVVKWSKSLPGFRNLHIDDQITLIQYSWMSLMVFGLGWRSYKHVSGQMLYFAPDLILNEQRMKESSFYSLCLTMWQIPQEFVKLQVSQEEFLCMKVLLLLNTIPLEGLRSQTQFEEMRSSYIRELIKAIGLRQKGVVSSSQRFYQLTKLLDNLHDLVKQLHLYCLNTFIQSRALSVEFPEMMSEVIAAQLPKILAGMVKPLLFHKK
Experiment: TOX21_PR_BLA_Followup_Agonist_ratio: Tox21 HEK293 Progesterone Receptor (PR) Agonism Beta-lactamase Follow-Up Assay, Ratio (AID 2283933)
Experimental: TOX21_PR_BLA_Followup is a secondary assay for specificity for the TOX21_PR_BLA_Agonist assay. To differentiate true PR agonists from cytotoxic substances, this follow up assay is multiplexed with a cell viability assay. The compounds were also tested for auto fluorescence that may interfere with the biological target readout resulting in potential false positives and/or negatives. […]
Inconclusive results are not listed. Calls of active or inactive are those of the source. Rule for the calls: active = hit-call score of the fitted dose curve at least 0.9, where 1 is the maximum; inconclusive = response in the unintended direction; inactive = score below 0.9.
Assign a class; possible classes are active, inactive

Exercise: Look up the recorded call for CC(=O)OCC(=O)[C@@]1(O)CC[C@H]2[C@@H]3CCC4=CC(=O)C=C[C@]4(C)[C@@]3(F)[C@@H](O)C[C@@]21C in this test.
Solution: active

Exercise: Look up the recorded call for CCC(=C(CC)c1ccc(O)cc1)c1ccc(O)cc1 in this test.
Solution: inactive

Exercise: Look up the recorded call for Cc1cc(C)c(C=C2C(=O)Nc3ccccc32)[nH]1 in this test.
Solution: inactive

Exercise: Look up the recorded call for CC(=O)OCC(=O)[C@@]1(O)CC[C@H]2[C@@H]3CCC4=CC(=O)C=C[C@]4(C)[C@H]3[C@@H](O)C[C@@]21C in this test.
Solution: inactive

Exercise: Look up the recorded call for CC(C)C[C@H](NC(=O)[C@H](Cc1ccccc1)NC(=O)c1cnccn1)B(O)O in this test.
Solution: inactive

Exercise: Look up the recorded call for C=C1C(CCl)(CCl)C2(Cl)C(Cl)C(Cl)C1(Cl)C2(Cl)Cl (stereo not drawn) in this test.
Solution: inactive

Exercise: Look up the recorded call for O=C(Nc1ccc(Cl)c(Cl)c1)C1CC1 in this test.
Solution: inactive

Exercise: Look up the recorded call for COC(=O)C1=C(C)NC(COC(N)=O)=C(C(=O)OC(C)C)C1c1cccc(Cl)c1Cl (stereo not drawn) in this test.
Solution: active

====

Molecular target: PGR (gene 5241) (UniProt P06401)
Assay: TOX21_PR_LUC_Followup_Agonist: Tox21 HEK293 Progesterone Receptor (PR) Agonism Luciferase Follow-Up Assay (AID 2283937)
Activity calls are given as the source filed them. The calls were made as follows: active = hit-call score of the fitted dose curve at least 0.9, where 1 is the maximum; inactive = score below 0.9.
Assign a class; possible classes are yes = active, no = inactive

Exercise: Look up the recorded call for O=C(Nc1ccc(Cl)c(Cl)c1)C1CC1 in this test.
Solution: no

Exercise: Look up the recorded call for CC(C)C[C@H](NC(=O)[C@H](CCc1ccccc1)NC(=O)CN1CCOCC1)C(=O)N[C@@H](Cc1ccccc1)C(=O)N[C@@H](CC(C)C)C(=O)[C@@]1(C)CO1 in this test.
Solution: no

Exercise: Look up the recorded call for CC(=O)OCC(=O)[C@@]1(O)CC[C@H]2[C@@H]3CCC4=CC(=O)C=C[C@]4(C)[C@H]3[C@@H](O)C[C@@]21C in this test.
Solution: yes

Exercise: Look up the recorded call for Cc1cc(C)c(C=C2C(=O)Nc3ccccc32)[nH]1 in this test.
Solution: no

Exercise: Look up the recorded call for Oc1ccc(N=Nc2ccccc2)cc1 in this test.
Solution: no
